TEST_SYSTEM: adenosine A1 receptor (A1R) (Homo sapiens)
Construct: expressed in transfected cells; host or cells: CHO-K1
EXPERIMENTAL_DETAILS: Inhibition of the adenosine A1 receptor cAMP signaling pathway in CHO-K1/A1R cells (HTRF)
Assay type: cell-based
CONDITION_DESCRIPTION: selectivity A1R over A2aR
MEASURE: IC50 ratio (A1R/A2aR)
Give bare numbers.

>  <MOLECULE>
Cc1ccnc2c(F)cc(-c3nnc(N)nc3-c3ccccc3F)cc12 [Example 31]

>  <IC50 ratio (A1R/A2aR)>
431

$$$$
>  <MOLECULE>
Cc1cc(-c2nnc(N)nc2-c2ccccc2)cc2cccnc12 [Example 1]

>  <IC50 ratio (A1R/A2aR)>
242

$$$$
>  <MOLECULE>
[2H]C([2H])([2H])c1ncnc2ccc(-c3nnc(N)nc3-c3ccc(F)cc3)cc12 [Example 52]

>  <IC50 ratio (A1R/A2aR)>
973

$$$$
>  <MOLECULE>
Cc1ccnc2c(F)cc(-c3nnc(N)nc3-c3ccccc3)cc12 [Example 16]

>  <IC50 ratio (A1R/A2aR)>
803

$$$$
>  <MOLECULE>
CCc1ccnc2ccc(-c3nnc(N)nc3-c3ccc(F)cc3)cc12 [Example 44]

>  <IC50 ratio (A1R/A2aR)>
807

$$$$

Lab note: each molecule below needs its IC50 ratio (A1R/A2aR) filled in.
1. Cc1ncnc2c(F)cc(-c3nnc(N)nc3-c3ccc(F)cc3)cc12 [Example 50]
2. Cc1ccnc2c(F)cc(-c3nnc(N)nc3-c3ccc(F)cc3)cc12 [Example 20]

Output line:
[1018, 411]

* * *

TEST_SYSTEM: adenosine A2a receptor (A2aR) (Homo sapiens, UniProt P29274)
Construct: expressed in transfected cells; host or cells: CHO-K1
Sequence (P29274 whole entry): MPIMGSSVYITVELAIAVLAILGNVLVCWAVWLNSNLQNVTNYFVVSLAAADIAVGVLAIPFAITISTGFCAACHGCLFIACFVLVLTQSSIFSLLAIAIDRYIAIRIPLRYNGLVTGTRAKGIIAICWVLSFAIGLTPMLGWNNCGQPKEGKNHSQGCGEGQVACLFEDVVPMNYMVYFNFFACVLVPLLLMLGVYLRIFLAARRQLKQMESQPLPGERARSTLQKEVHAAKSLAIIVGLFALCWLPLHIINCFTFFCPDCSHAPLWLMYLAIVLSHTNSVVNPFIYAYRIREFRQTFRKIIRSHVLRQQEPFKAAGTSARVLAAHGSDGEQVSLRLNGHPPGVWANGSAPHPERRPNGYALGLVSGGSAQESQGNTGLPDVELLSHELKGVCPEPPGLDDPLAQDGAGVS
EXPERIMENTAL_DETAILS: Inhibition of the adenosine A2a receptor cAMP signaling pathway in CHO-K1/A2aR cells (HTRF)
Assay type: cell-based
CONDITION_DESCRIPTION: CHO-K1/A2aR cells, cAMP, NECA 20 nM; Table 1
Friendly reminder: IC50 below 2 nM is Condition met, at or above is Condition not met.

Worked cases, answers included:
>  <COMPOUND>
CCc1ccnc2ccc(-c3nnc(N)nc3-c3ccc(F)cc3)cc12 [Example 44]

>  <ASSIGNED_CLASS>
Condition met

$$$$
>  <COMPOUND>
Cc1ccnc2c(F)cc(-c3nnc(N)nc3-c3ccccc3)cc12 [Example 16]

>  <ASSIGNED_CLASS>
Condition met

$$$$
>  <COMPOUND>
Cc1ncnc2c(F)cc(-c3nnc(N)nc3-c3ccccc3)cc12 [Example 45]

>  <ASSIGNED_CLASS>
Condition met

$$$$
>  <COMPOUND>
Nc1nnc(-c2ccc3ncccc3c2)c(-c2ccc(F)cc2)n1 [Example 30]

>  <ASSIGNED_CLASS>
Condition not met

$$$$

Note: attention shifts to another entry.
Input line: Field: below-cutoff. Rule: recorded IC50 strictly less than 2 nM. Subject: Cc1cc(-c2nc(N)nnc2-c2ccc3nccc(C)c3c2)ccn1 [Example 48]
Output line: Condition not met

* * *

TEST_SYSTEM: adenosine A1 receptor (A1R) (Homo sapiens, UniProt P30542)
Construct: expressed in transfected cells; host or cells: CHO-K1
Sequence (P30542 whole entry): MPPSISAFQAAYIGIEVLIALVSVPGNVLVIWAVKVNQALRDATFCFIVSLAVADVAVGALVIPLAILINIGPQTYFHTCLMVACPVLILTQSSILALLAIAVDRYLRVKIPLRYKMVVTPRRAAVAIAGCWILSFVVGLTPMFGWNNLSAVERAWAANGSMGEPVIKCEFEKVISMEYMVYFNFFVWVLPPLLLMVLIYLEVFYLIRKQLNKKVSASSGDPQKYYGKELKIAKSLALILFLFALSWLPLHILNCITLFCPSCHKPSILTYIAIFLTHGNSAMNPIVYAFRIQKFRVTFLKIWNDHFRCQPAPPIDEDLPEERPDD
EXPERIMENTAL_DETAILS: Inhibition of the adenosine A1 receptor cAMP signaling pathway in CHO-K1/A1R cells (HTRF)
Format: cell-based
CONDITION_DESCRIPTION: selectivity A1R over A2aR
MEASURE: IC50 ratio (A1R/A2aR)

>  <MOLECULE>
[2H]C([2H])([2H])c1ccnc2ccc(-c3nnc(N)nc3-c3ccc(F)cc3)cc12 [Example 22]

>  <IC50 ratio (A1R/A2aR)>
334

$$$$
>  <MOLECULE>
Cc1ccnc2ccc(-c3nnc(N)nc3-c3ccc(F)cc3)cc12 [Example 18]

>  <IC50 ratio (A1R/A2aR)>
948

$$$$
>  <MOLECULE>
Nc1nnc(-c2ccc3ncccc3c2)c(-c2ccccc2)n1 [Example 3]

>  <IC50 ratio (A1R/A2aR)>
139

$$$$

// for each molecule below, give its IC50 ratio (A1R/A2aR)
1. Cc1ncnc2ccc(-c3nnc(N)nc3-c3ccc(F)cc3)cc12 [Example 19]
2. Cc1ncnc2c(F)cc(-c3nnc(N)nc3-c3ccccc3)cc12 [Example 45]
3. Nc1nnc(-c2cc(F)c3ncccc3c2)c(-c2ccccc2)n1 [Example 2]
4. Cc1ccnc2ccc(-c3nnc(N)nc3-c3ccccc3F)cc12 [Example 17]

Output line:
[3557, 775, 221, 2698]

Go through the list and state IC50 ratio (A1R/A2aR) for each entry.
1. Cc1ncnc2ccc(-c3nnc(N)nc3-c3ccccc3)cc12 [Example 15]
2. Cc1cc(-c2nc(N)nnc2-c2ccc3nccc(C)c3c2)ccn1 [Example 48]

Output line:
2484
1365
